# maps each entry to its pKd
- target_or_test_system: T1, recombinant human CTLA4-his protein (Acro biosystems, Cat#CT4-H5229) (human, UniProt P16410 37-162)
- T1 construct: bought recombinant protein; not shown: his tag
- T1 sequence (looked up): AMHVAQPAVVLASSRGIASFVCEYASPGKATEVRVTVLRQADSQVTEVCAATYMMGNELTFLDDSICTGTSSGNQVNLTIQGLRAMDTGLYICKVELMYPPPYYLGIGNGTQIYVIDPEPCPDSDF
- assay_name: BLI, Octet; antibody from cell supernatant on AHC sensor, CTLA4-his as analyte
Field pKd (float): negative decimal logarithm of the concentration in molar.

Recorded pKd, per entry:
binder	pKd
huC1D1-V2 (antibody, human IgG4 S228P, kappa, V domains shown, humanized IgG4/kappa; tested as 293F cell supernatant on Octet; also called hu CTLA4 C1D1-V2) VH: EVQLVESGGGLVQPGRSLRLSCTASGFTFSDNWMNWVRQAPGKGLEWVAQIRNKPYNYETYYSDSVKGRFTISRDDSKSIAYLQMNSLKTEDTAVYYCTGGMDYWGQGTTVTVSS VL: DIQMTQSPSSLSASVGDRVTITCGASEIIYGALNWYQQKPGKSPKLLIYGATNLADGMPSRFSGSGSGRDYTLTISSLQPEDVATYYCQKILSPPPWTFGGGTKVEIKR	9.25
huC1D1-V1 (antibody, human IgG4 S228P, kappa, V domains shown, humanized IgG4/kappa; tested as 293F cell supernatant on Octet; also called huCTLA4 C1D1-V1) VH: EVQLVESGGGLVQPGRSLRLSCTASGFTFSDNWMNWVRQAPGKGLEWVAQIRNKPYNYETYYSDSVKGRFTISRDDSKSIVYLQMNSLKTEDTAVYYCTGGMDYWGQGTTVTVSS VL: DIQMTQSPSSLSASVGDRVTITCGASEIIYGALNWYQQKPGKSPKLLIYGATNLADGMPSRFSGSGSGRDYTLTISSLQPEDVATYYCQKILSPPPWTFGGGTKVEIKR	9.74
huD1D5-V2 (antibody, human IgG4 S228P, kappa, V domains shown, humanized IgG4/kappa; tested as 293F cell supernatant on Octet; also called hu CTLA4 D1D5-V2) VH: EVQLVESGGGLVKPGGSLRLSCAASGFTFSDYGMAWVRQAPGKGLEWVAFISNLAYSVYYADTETGRFTISRDNAKNSLYLQMNSLRAEDTAVYYCARSGLPYAMDYWGQGTTVTVSS VL: DIQMTQSPSSLSASVGDRVTITCRASQDISNYLNWYQQKPGKTVKLLIYYISRLHSGVPSRFSGSGSGTDFTLTISSLQPEDVATYFCQQGRMLPWTFGGGTKVEIKR	9.14

Value of measured pKd for the entry huD1D5-V7 (antibody, human IgG4 S228P, kappa, V domains shown, humanized IgG4/kappa; tested as 293F cell supernatant on Octet; also called hu CTLA4 D1D5-V7) VH: EVQLVESGGGLVKPGGSLRLSCAASGFTFSDYGMAWVRQAPGKGLEWVAFISNLAYSVYYADTETGRFTISRDDAKNSLYLQMNSLRAEDTAVYYCARSGLPYAMDYWGQGTTVTVSS VL: DIQMTQSPSSLSASVGDRVTITCRASQDISNYLNWYQQKPGKVPKLLIYYISRLHSGVPSRFSGSGSGTDFTLTISSLQPEDVATYFCQQGRMLPWTFGGGTKVEIKR : 7.99

huC1D1-V9 (antibody, human IgG4 S228P, kappa, V domains shown, humanized IgG4/kappa; tested as 293F cell supernatant on Octet; also called hu CTLA4 C1D1-V9) VH: EVQLVESGGGLVQPGRSLRLSCTASGFTFSDNWMNWVRQAPGKGLEWVAQIRNKPYNYETYYSDSVKGRFTISRDDSKSIVYLQMNSLKTEDTAVYYCTGGMDYWGQGTTVTVSS VL: DIQMTQSPSSLSASVGDRVTITCGASEIIYGALNWYQQKPGKVPKLLIYGATNLADGVPSRFSGSGSGTDFTLTISSLQPEDVATYYCQKILSPPPWTFGGGTKVEIKR has a reported pKd of 9.13

// pKd lookup, binder = huC1D1-V7 (antibody, human IgG4 S228P, kappa, V domains shown, humanized IgG4/kappa; tested as 293F cell supernatant on Octet; also called hu CTLA4 C1D1-V7) VH: EVQLVESGGGLVQPGRSLRLSCTASGFTFSDNWMNWVRQAPGKGLEWVGQIRNKPYNYETYYSDSVKGRFTISRDDSKSIVYLQMNSLKTEDTAVYYCTGGMDYWGQGTTVTVSS VL: DIQMTQSPSSLSASVGDRVTITCGASEIIYGALNWYQQKPGKSPKLLIYGATNLADGVPSRFSGSGSGTDFTLTISSLQPEDVATYYCQKILSPPPWTFGGGTKVEIKR , result: 9.44

binder huC1D1-V12 (antibody, human IgG4 S228P, kappa, V domains shown, humanized IgG4/kappa; tested as 293F cell supernatant on Octet; also called hu CTLA4 C1D1-V12; huC1D1-VI2) VH: EVQLVESGGGLVQPGRSLRLSCTASGFTFSDNWMNWVRQAPGKGLEWVGQIRNKPYNYETYYSDSVKGRFTISRDDSKSIAYLQMNSLKTEDTAVYYCTGGMDYWGQGTTVTVSS VL: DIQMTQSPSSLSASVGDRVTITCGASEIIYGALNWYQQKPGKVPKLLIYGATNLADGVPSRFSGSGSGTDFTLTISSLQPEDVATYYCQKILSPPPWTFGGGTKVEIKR , pKd observed: 9.00

Summary for this binder, huC1D1-V3 (antibody, human IgG4 S228P, kappa, V domains shown, humanized IgG4/kappa; tested as 293F cell supernatant on Octet; also called hu CTLA4 C1D1-V3) VH: EVQLVESGGGLVQPGRSLRLSCTASGFTFSDNWMNWVRQAPGKGLEWVGQIRNKPYNYETYYSDSVKGRFTISRDDSKSIVYLQMNSLKTEDTAVYYCTGGMDYWGQGTTVTVSS VL: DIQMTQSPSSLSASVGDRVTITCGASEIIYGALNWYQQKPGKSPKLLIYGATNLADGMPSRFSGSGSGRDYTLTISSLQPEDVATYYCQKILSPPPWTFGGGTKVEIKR : pKd is 8.94
